B1: MATN2 (parent)
chain: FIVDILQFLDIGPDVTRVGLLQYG

- Variants of: B1
- experimental.protocol: protein stability index of a GFP-peptide fusion (GPS, HEK-293T) (PSI 1-6); higher = more stable;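 also: lentivirally expressed fusions sorted by FACS into six bins by GFP to DsRed ratio, PSI derived from sequencing read proportions per bin multiplied by bin number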
- assay.conditions: c terminus: a fixed tail appended
In this section, each of the variants is paired with its reported protein stability index.
The answer should be a number; do not append a unit.

Some entries whose results are on file:
>>> quantitative_result("L9T")
2.81
>>> quantitative_result("D4Y")
2.58
>>> quantitative_result("V3W")
3.32
>>> quantitative_result("G12D")
2.56

Task: What measured protein stability index goes with R17G ?
Result: 2.07

Task: What measured protein stability index goes with V15N ?
Result: 2.49

Task: What measured protein stability index goes with G24I ?
Result: 3.62

Task: What measured protein stability index goes with Q22G ?
Result: 3.55

Task: What measured protein stability index goes with T16Y ?
Result: 4.05

Task: What measured protein stability index goes with F8D ?
Result: 2

Task: What measured protein stability index goes with G12R ?
Result: 4.05

Task: What measured protein stability index goes with L6A ?
Result: 3.92

Task: What measured protein stability index goes with F8L ?
Result: 2.43

Ref: the supplement of paper PMC10567573
